test: acute toxicity (LD50); settings: rat, in vivo, po
recorded endpoint: LD50

Task item: LD50 lookup needed for Cc1c(C)c2c(c(C)c1OP(=O)(O)OC1=C(O)[C@@H]([C@@H](O)CO)OC1=O)CCC(C)(CCCC(C)CCCC(C)CCCC(C)C)O2.O=P(O)(O)O (mixture of isomers) [EPC-K1] , thanks.
Reply: > 5000 mg/kg

###

assay: acute toxicity (LD50); conditions: rat, in vivo, iv
recorded endpoint: LD50

Task item: Query: LD50; subject: Cc1c(C)c2c(c(C)c1OP(=O)(O)OC1=C(O)[C@@H]([C@@H](O)CO)OC1=O)CCC(C)(CCCC(C)CCCC(C)CCCC(C)C)O2.O=P(O)(O)O (mixture of isomers)
Reply: > 100 mg/kg
